tested on: Strain IFO 13725; test: Susceptibility toward antibiotic (minimum inhibition concentration); format: cell-based, Nocardia sp. No. C-14482; details: Nocardia, IFO13725; Strain IFO 13725; read-out: minimum inhibition concentration
Measurement Label: MIC (µg/mL)
Your answer should be a plain number; it is taken to be in µg/mL.

Solved entries:
| Structure String | Target Or System | Measurement |
| --- | --- | --- |
| CC1(C)S[C@@H]2[C@H](NC(=O)Cc3ccccc3)C(=O)N2[C@H]1C(=O)O | Strain IFO 13725 | 10 |
| [H]/N=C(/N)N[C@H]1[C@H](O)[C@@H](O)[C@H](O[C@@H]2O[C@@H](C)[C@](O)(C=O)[C@H]2O[C@@H]2O[C@@H](CO)[C@H](O)[C@@H](O)[C@@H]2NC)[C@@H](N/C(N)=N\[H])[C@@H]1O | Strain IFO 13725 | 1 |
| CCC[C@@H]1C[C@@H](C(=O)N[C@@H]([C@H]2O[C@H](SC)[C@H](O)[C@@H](O)[C@H]2O)[C@@H](C)O)N(C)C1 | Strain IFO 13725 | 5 |

Now for another entry.
Enquiry: Quick one: MIC for O=C(N[C@H](CO)[C@H](O)c1ccc([N+](=O)[O-])cc1)C(Cl)Cl ?
Return: 10
